Biological target: T1, recombinant human LAG-3 (human, UniProt P18627 23-450, limits assumed)
T1 sequence (looked up): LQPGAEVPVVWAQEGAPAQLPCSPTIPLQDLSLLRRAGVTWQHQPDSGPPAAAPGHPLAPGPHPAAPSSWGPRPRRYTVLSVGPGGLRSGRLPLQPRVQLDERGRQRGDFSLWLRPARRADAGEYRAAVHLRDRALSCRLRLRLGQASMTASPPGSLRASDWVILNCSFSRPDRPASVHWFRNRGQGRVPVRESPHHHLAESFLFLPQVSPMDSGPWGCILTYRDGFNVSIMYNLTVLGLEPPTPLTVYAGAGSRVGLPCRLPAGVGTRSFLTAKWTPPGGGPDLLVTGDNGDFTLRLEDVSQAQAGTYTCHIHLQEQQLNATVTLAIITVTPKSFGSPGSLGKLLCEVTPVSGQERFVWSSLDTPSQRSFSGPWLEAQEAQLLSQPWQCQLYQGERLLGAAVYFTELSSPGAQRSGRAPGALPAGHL
Assay: surface plasmon resonance (data not shown)
endpoint_label: binding result

P13B02-26 (antibody, IgG1, V domains shown, Humanized; VH is H4_R98K; generated as full length IgG1; also called P13B02-26 (IgG1)) VH: QVQMKQSGAEVVKPGASVKVSCTASGFNIKDTYIHWVRQAPGQGLEWIGEIDPANDNTKYDPKFQGRVTITADTSSNTVYLQLSSLRSEDTAVYYCATYYYKYDVGGFDYWGQGTLVTVSS VL: EILLTQSPGTLSLSPGERATLTCSVSSSISSSNLHWFQQKPGQSPRLWIYGTSNLASGVPDRFSGSGSGTSYTLTISRLEPEDFAVYYCQQWSSYPFTFGQGTKVEIK; binds
P13B02-37 (antibody, IgG1, V domains shown, Humanized; generated as full length IgG1) VH: QVQMKQSGAEVKKPGASVKVSCTASGFNIKDTYIHWVRQAPGQGLEWMGEIDPANDNTKYDPKFQGRVTITADTSSNTVYMELSSLRSEDTAVYYCATYYYKYDVGGFDYWGQGTLVTVSS VL: EIVLTQSPGTLSLSPGERATLSCSVSSSISSSNLHWYQQKPGQAPRLLIYGTSNLASGIPDRFSGSGSGTDFTLTISRLEPEDFAVYYCQQWSSYPFTFGQGTKVEIK; binds
